molecular target: human CRTH2 (Homo sapiens, UniProt Q9Y5Y4); assay: Human CRTH2 Receptor Binding Assay (whole cell, [3H]ramatroban); set-up: expressed in transfected cells; host or cells: CHO-K1; conditions: whole CHO-K1 cells stably expressing human CRTH2 and G-alpha16; 20 nM [3H]ramatroban; 1 hour, room temperature
Sequence (Q9Y5Y4 whole entry): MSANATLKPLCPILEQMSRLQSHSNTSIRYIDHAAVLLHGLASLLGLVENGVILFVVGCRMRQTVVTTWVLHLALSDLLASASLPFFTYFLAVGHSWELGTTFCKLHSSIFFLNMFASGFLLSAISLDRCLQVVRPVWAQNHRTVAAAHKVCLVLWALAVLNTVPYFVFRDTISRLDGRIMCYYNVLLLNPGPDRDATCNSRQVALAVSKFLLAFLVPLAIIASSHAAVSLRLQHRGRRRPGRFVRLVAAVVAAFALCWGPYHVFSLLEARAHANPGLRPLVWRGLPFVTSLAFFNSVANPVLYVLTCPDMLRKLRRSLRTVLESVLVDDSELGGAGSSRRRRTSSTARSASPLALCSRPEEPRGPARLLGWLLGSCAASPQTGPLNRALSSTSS
pIC50: −log10 of the molar value.
quantity-kind: pIC50

Exercise: Please look at Cc1c(CC(=O)O)cc2ccc(F)cc2c1C(=O)N1CCN(c2ccc(C(F)(F)F)cn2)CC1 and tell me its recorded pIC50 on human CRTH2 (Homo sapiens, UniProt Q9Y5Y4).
Solution: 7.95

Exercise: Please look at O=C(O)Cc1cc(OC2CCN(C(=O)c3ccc(F)cc3)CC2)c2cc(F)ccc2c1 and tell me its recorded pIC50 on human CRTH2 (Homo sapiens, UniProt Q9Y5Y4).
Solution: 7.50

Exercise: Please look at Cc1c(CC(=O)O)cc2ccc(F)cc2c1C(=O)N1CCN(S(=O)(=O)Cc2ccccc2)CC1 and tell me its recorded pIC50 on human CRTH2 (Homo sapiens, UniProt Q9Y5Y4).
Solution: 8.27

Exercise: Please look at O=C(O)Cc1cc(OC2CCN(C(=O)C3CCCC3)CC2)c2cc(F)ccc2c1 and tell me its recorded pIC50 on human CRTH2 (Homo sapiens, UniProt Q9Y5Y4).
Solution: 7.27

[1] Cc1c(CC(=O)O)cc2ccc(F)cc2c1C(=O)N1CCN(c2ccccc2)CC1
[2] Cc1ccc(N2CCN(C(=O)c3c(C)c(CC(=O)O)cc4ccc(F)cc34)CC2)cc1
[3] Cc1c(CC(=O)O)cc2ccc(F)cc2c1C(=O)N1CCN(S(=O)(=O)C(F)(F)F)CC1
[4] CC(C)C(=O)N1CCC(Oc2cc(CC(=O)O)cc3ccc(F)cc23)CC1
Exercise: Please list these molecules in decreasing order of pIC50. Output the labels ranked as instructed.
Solution: 3, 2, 1, 4

* * *

target: human CRTH2 (Homo sapiens, UniProt Q9Y5Y4); test: Human CRTH2 Receptor Binding Assay (whole cell, [3H]ramatroban); set-up: expressed in transfected cells; host or cells: CHO-K1; conditions: whole CHO-K1 cells stably expressing human CRTH2 and G-alpha16; 20 nM [3H]ramatroban; 1 hour, room temperature
pIC50: −log10 of the molar value.
quantity-kind: pIC50

Exercise: Answer with the recorded pIC50 for the compound listed here: CS(=O)(=O)N1CCC(Oc2cc(CC(=O)O)cc3ccc(F)cc23)CC1 [Example 4-1]
Solution: 8.03

Exercise: Answer with the recorded pIC50 for the compound listed here: Cc1c(CC(=O)O)cc2ccc(F)cc2c1C(=O)N1CCN(c2ccc(C(F)(F)F)cc2)CC1 [Example 2-19]
Solution: 8.00

Exercise: Answer with the recorded pIC50 for the compound listed here: O=C(O)Cc1cc(C(=O)N2CCN(S(=O)(=O)c3ccccc3)CC2)c2cc(C(F)(F)F)ccc2c1 [Example 1-18]
Solution: 8.22

Exercise: Answer with the recorded pIC50 for the compound listed here: Cc1c(CC(=O)O)cc2ccc(F)cc2c1C(=O)N1CCN(S(=O)(=O)C2CCCC2)CC1 [Example 1-8]
Solution: 8.16

Exercise: Answer with the recorded pIC50 for the compound listed here: O=C(O)Cc1cc(OC2CCN(C(=O)c3ccccc3)CC2)c2cc(F)ccc2c1 [Example 5-6]
Solution: 7.87

Exercise: Answer with the recorded pIC50 for the compound listed here: Cc1c(CC(=O)O)cc2ccc(F)cc2c1C(=O)N1CCN(c2ccc(Cl)cc2)CC1 [Example 2-18]
Solution: 8.03

Recorded values, source patent US8188090B2.
